MEASUREMENT_PROTOCOL: Concentration of meloxicam in plasma of dogs after single subcutaneous silica hydrogel depot
Format: in vivo
TEST_CONDITIONS: dog, sc, 3.16 mg meloxicam/kg bodyweight, Dog 1, 3.0 hours, single s.c. silica hydrogel depot
TEST_READOUT: concentration at 3 hours (ng/mL)
Hi! Could you send only the number? It should be in ng/mL, unit omitted.

What the record says about Cc1cnc(NC(=O)C2=C(O)c3ccccc3S(=O)(=O)N2C)s1 : concentration at 3 hours is 379

====

MEASUREMENT_PROTOCOL: Concentration of meloxicam in plasma of dogs after single subcutaneous silica hydrogel depot
Type: in vivo
TEST_CONDITIONS: dog, sc, 3.16 mg meloxicam/kg bodyweight, Dog 2, 840.0 hours, single s.c. silica hydrogel depot
TEST_READOUT: concentration at 840 hours (µg/mL)
Hi! Could you send only the number? It should be in µg/mL, unit omitted.

What the record says about Cc1cnc(NC(=O)C2=C(O)c3ccccc3S(=O)(=O)N2C)s1 : concentration at 840 hours is 0.0401

====

MEASUREMENT_PROTOCOL: Concentration of meloxicam in plasma of dogs after single subcutaneous silica hydrogel depot
Assay type: in vivo
TEST_CONDITIONS: dog, sc, 3.16 mg meloxicam/kg bodyweight, Dog 1, 12.0 hours, single s.c. silica hydrogel depot
TEST_READOUT: concentration at 12 h (ng/mL)
Hi! Could you send only the number? It should be in ng/mL, unit omitted.

What the record says about Cc1cnc(NC(=O)C2=C(O)c3ccccc3S(=O)(=O)N2C)s1 : concentration at 12 h is 363

====

MEASUREMENT_PROTOCOL: Concentration of meloxicam in plasma of dogs after single subcutaneous silica hydrogel depot
Type: in vivo
TEST_CONDITIONS: dog, sc, 3.16 mg meloxicam/kg bodyweight, Dog 2, 4.0 hours, single s.c. silica hydrogel depot
TEST_READOUT: concentration at 4 h (ng/mL)
Hi! Could you send only the number? It should be in ng/mL, unit omitted.

What the record says about Cc1cnc(NC(=O)C2=C(O)c3ccccc3S(=O)(=O)N2C)s1 : concentration at 4 h is 257

====

MEASUREMENT_PROTOCOL: Concentration of meloxicam in plasma of dogs after single subcutaneous silica hydrogel depot
Format: in vivo
TEST_CONDITIONS: dog, sc, 3.16 mg meloxicam/kg bodyweight, Dog 2, 3.0 hours, single s.c. silica hydrogel depot
TEST_READOUT: concentration at 3 hours (ng/mL)
Hi! Could you send only the number? It should be in ng/mL, unit omitted.

What the record says about Cc1cnc(NC(=O)C2=C(O)c3ccccc3S(=O)(=O)N2C)s1 : concentration at 3 hours is 227

====

MEASUREMENT_PROTOCOL: Concentration of meloxicam in plasma of dogs after single subcutaneous silica hydrogel depot
Assay type: in vivo
TEST_CONDITIONS: dog, sc, 3.16 mg meloxicam/kg bodyweight, Dog 1, 1344.0 hours, single s.c. silica hydrogel depot
TEST_READOUT: concentration at 1344 hours (ng/mL)
Hi! Could you send only the number? It should be in ng/mL, unit omitted.

What the record says about Cc1cnc(NC(=O)C2=C(O)c3ccccc3S(=O)(=O)N2C)s1 : concentration at 1344 hours is 0.4

====

MEASUREMENT_PROTOCOL: Concentration of meloxicam in plasma of dogs after single subcutaneous silica hydrogel depot
Assay type: in vivo
TEST_CONDITIONS: dog, sc, 3.16 mg meloxicam/kg bodyweight, Dog 2, 12.0 hours, single s.c. silica hydrogel depot
TEST_READOUT: concentration at 12 h (ng/mL)
Hi! Could you send only the number? It should be in ng/mL, unit omitted.

What the record says about Cc1cnc(NC(=O)C2=C(O)c3ccccc3S(=O)(=O)N2C)s1 : concentration at 12 h is 447

====

MEASUREMENT_PROTOCOL: Concentration of meloxicam in plasma of dogs after single subcutaneous silica hydrogel depot
Assay type: in vivo
TEST_CONDITIONS: dog, sc, 3.16 mg meloxicam/kg bodyweight, Dog 1, 2.0 hours, single s.c. silica hydrogel depot
TEST_READOUT: concentration at 2 hours (ng/mL)
Hi! Could you send only the number? It should be in ng/mL, unit omitted.

What the record says about Cc1cnc(NC(=O)C2=C(O)c3ccccc3S(=O)(=O)N2C)s1 : concentration at 2 hours is 296

====

MEASUREMENT_PROTOCOL: Concentration of meloxicam in plasma of dogs after single subcutaneous silica hydrogel depot
Type: in vivo
TEST_CONDITIONS: dog, sc, 3.16 mg meloxicam/kg bodyweight, Dog 3, 6.0 hours, single s.c. silica hydrogel depot
TEST_READOUT: concentration at 6 h (ng/mL)
Hi! Could you send only the number? It should be in ng/mL, unit omitted.

What the record says about Cc1cnc(NC(=O)C2=C(O)c3ccccc3S(=O)(=O)N2C)s1 [meloxicam] : concentration at 6 h is 359

====

MEASUREMENT_PROTOCOL: Concentration of meloxicam in plasma of dogs after single subcutaneous silica hydrogel depot
Format: in vivo
TEST_CONDITIONS: dog, sc, 3.16 mg meloxicam/kg bodyweight, Dog 1, 1008.0 hours, single s.c. silica hydrogel depot
Protocol: Example 1 relates to animal studies carried out. […] The appropriate dose of TI was administered subcutaneously as a one off dose at the area behind the shoulder blade.
TEST_READOUT: concentration at 1008 hours
Respond with a number, then the unit of measure.

What the record says about Cc1cnc(NC(=O)C2=C(O)c3ccccc3S(=O)(=O)N2C)s1 : concentration at 1008 hours is 0.9 ng/mL

====

MEASUREMENT_PROTOCOL: Concentration of meloxicam in plasma of dogs after single subcutaneous silica hydrogel depot
Format: in vivo
TEST_CONDITIONS: dog, sc, 3.16 mg meloxicam/kg bodyweight, Dog 1, 6.0 hours, single s.c. silica hydrogel depot
Experimental: Example 1 relates to animal studies carried out. […] The appropriate dose of TI was administered subcutaneously as a one off dose at the area behind the shoulder blade.
TEST_READOUT: concentration at 6 h

What the record says about Cc1cnc(NC(=O)C2=C(O)c3ccccc3S(=O)(=O)N2C)s1 : concentration at 6 h is 375 ng/mL

====

MEASUREMENT_PROTOCOL: Concentration of meloxicam in plasma of dogs after single subcutaneous silica hydrogel depot
Format: in vivo
TEST_CONDITIONS: dog, sc, 3.16 mg meloxicam/kg bodyweight, Dog 2, 672.0 hours, single s.c. silica hydrogel depot
TEST_READOUT: concentration at 672 hours (ng/mL)
Hi! Could you send only the number? It should be in ng/mL, unit omitted.

What the record says about Cc1cnc(NC(=O)C2=C(O)c3ccccc3S(=O)(=O)N2C)s1 [meloxicam] : concentration at 672 hours is 67.3

====

MEASUREMENT_PROTOCOL: Concentration of meloxicam in plasma of dogs after single subcutaneous silica hydrogel depot
Type: in vivo
TEST_CONDITIONS: dog, sc, 3.16 mg meloxicam/kg bodyweight, Dog 2, 0.5 hours, single s.c. silica hydrogel depot
TEST_READOUT: concentration at 0.5 hours (ng/mL)
Hi! Could you send only the number? It should be in ng/mL, unit omitted.

What the record says about Cc1cnc(NC(=O)C2=C(O)c3ccccc3S(=O)(=O)N2C)s1 : concentration at 0.5 hours is 27

====

MEASUREMENT_PROTOCOL: Concentration of meloxicam in plasma of dogs after single subcutaneous silica hydrogel depot
Assay type: in vivo
TEST_CONDITIONS: dog, sc, 3.16 mg meloxicam/kg bodyweight, Dog 1, 504.0 hours, single s.c. silica hydrogel depot
Procedure: Example 1 relates to animal studies carried out. […] The appropriate dose of TI was administered subcutaneously as a one off dose at the area behind the shoulder blade.
TEST_READOUT: concentration at 504 h (ng/mL)
Hi! Could you send only the number? It should be in ng/mL, unit omitted.

What the record says about Cc1cnc(NC(=O)C2=C(O)c3ccccc3S(=O)(=O)N2C)s1 : concentration at 504 h is 4.3

====

MEASUREMENT_PROTOCOL: Concentration of meloxicam in plasma of dogs after single subcutaneous silica hydrogel depot
Assay type: in vivo
TEST_CONDITIONS: dog, sc, 3.16 mg meloxicam/kg bodyweight, Dog 3, 1176.0 hours, single s.c. silica hydrogel depot
TEST_READOUT: concentration at 1176 hours (ng/mL)
Hi! Could you send only the number? It should be in ng/mL, unit omitted.

What the record says about Cc1cnc(NC(=O)C2=C(O)c3ccccc3S(=O)(=O)N2C)s1 : concentration at 1176 hours is 3

====

MEASUREMENT_PROTOCOL: Concentration of meloxicam in plasma of dogs after single subcutaneous silica hydrogel depot
Format: in vivo
TEST_CONDITIONS: dog, sc, 3.16 mg meloxicam/kg bodyweight, Dog 3, 3.0 hours, single s.c. silica hydrogel depot
TEST_READOUT: concentration at 3 hours (ng/mL)
Hi! Could you send only the number? It should be in ng/mL, unit omitted.

What the record says about Cc1cnc(NC(=O)C2=C(O)c3ccccc3S(=O)(=O)N2C)s1 : concentration at 3 hours is 301
